assayTarget: T1, EINH186D (enzyme I N-terminal domain) N-terminal domain (Streptomyces coelicolor, UniProt Q9KZP1)
T1 chain: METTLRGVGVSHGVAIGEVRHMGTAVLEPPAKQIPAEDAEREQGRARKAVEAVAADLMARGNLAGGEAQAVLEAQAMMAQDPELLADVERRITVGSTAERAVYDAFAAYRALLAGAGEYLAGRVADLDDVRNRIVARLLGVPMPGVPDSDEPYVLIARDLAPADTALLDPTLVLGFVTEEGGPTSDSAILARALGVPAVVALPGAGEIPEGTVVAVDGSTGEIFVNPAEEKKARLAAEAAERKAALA
assayMethodText: ITC
valueType: Kd (nM)
The response must be a number in nM with no trailing unit.

State, in one line, measured Kd of HPrbs (histidine phosphocarrier protein) (protein) MKTQQFTVIDPLGIHARPASQLVAKATPFASAIEVRTEEKAANLKSILGVMGLALKQGSQFTLYVEGEDEDQAFEALATLLTEMGLAQ 2900
